Biological target: Protein cereblon/Phospholipid hydroperoxide glutathione peroxidase GPX4 (Homo sapiens) (UniProt Q96SW2+P36969)
Sequence (P36969 whole entry, looked up): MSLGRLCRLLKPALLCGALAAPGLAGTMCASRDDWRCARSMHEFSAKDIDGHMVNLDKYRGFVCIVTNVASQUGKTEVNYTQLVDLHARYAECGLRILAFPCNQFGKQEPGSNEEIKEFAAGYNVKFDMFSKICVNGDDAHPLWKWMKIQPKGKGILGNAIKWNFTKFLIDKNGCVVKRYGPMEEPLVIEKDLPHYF
Sequence (Q96SW2 whole entry, looked up): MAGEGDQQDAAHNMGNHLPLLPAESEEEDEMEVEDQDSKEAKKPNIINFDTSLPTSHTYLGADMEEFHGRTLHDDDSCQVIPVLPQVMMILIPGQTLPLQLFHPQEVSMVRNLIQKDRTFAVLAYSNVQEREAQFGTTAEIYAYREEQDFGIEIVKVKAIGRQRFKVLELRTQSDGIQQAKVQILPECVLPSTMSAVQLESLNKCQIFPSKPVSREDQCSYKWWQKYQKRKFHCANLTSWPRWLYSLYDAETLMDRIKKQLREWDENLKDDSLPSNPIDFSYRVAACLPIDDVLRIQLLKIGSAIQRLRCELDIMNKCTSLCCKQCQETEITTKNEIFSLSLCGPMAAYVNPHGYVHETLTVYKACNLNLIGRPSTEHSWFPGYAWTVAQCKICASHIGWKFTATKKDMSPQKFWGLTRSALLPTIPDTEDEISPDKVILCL
Experiment: PROTAC activity at CRBN/GPX4 in human HT-1080 cells assessed as induction of GPX4 degradation at 1 uM incubated for 24 hrs by Western blot analysis relative to control
Assay type: cell-based
Catalogue of Activity readings, one per entry.

Cc1onc(C(=O)N2CCN(C(c3ccc(Cl)cc3)c3ccc(OCC(=O)N4CCN(CCCCCCCCCCCCCCNc5cccc6c5CN(C5CCC(=O)NC5=O)C6=O)CC4)cc3)CC2)c1[N+](=O)[O-] (stereo not drawn): < 5%
Cc1onc(C(=O)N2CCN(C(c3ccc(Cl)cc3)c3ccc(OCC(=O)N4CCC(CN5CCN(CCNc6cccc7c6C(=O)N(C6CCC(=O)NC6=O)C7=O)CC5)CC4)cc3)CC2)c1[N+](=O)[O-] (stereo not drawn): > 80%

Supply Activity value. Item: Cc1onc(C(=O)N2CCN(C(c3ccc(Cl)cc3)c3ccc(OCC(=O)N4CCC(CN5CCN(CCCCCCNc6cccc7c6C(=O)N(C6CCC(=O)NC6=O)C7=O)CC5)CC4)cc3)CC2)c1[N+](=O)[O-] (stereo not drawn) > 80%
